- Test system: Hela cells
- ASSAY_COMMENT: Liquid in situ hybridization with flow cytometry, DMSO plus additional compound (Example 4), 28S RNA and NR probes
- Type: cell-based
- SETUP_CONDITIONS: 10% additional compound with 9% DMSO; FITC NR probe (non-specific binding and autofluorescence); water control 0.137
Listed here are molecules together with their documented NR Probe, mean LFL1.
Answer with the value's number alone.

// known answers, use as guide
MOLECULE	NR Probe, mean LFL1
CCCCCCCCCCCCCCCC(=O)OC(C)C [isopropyl palmitate]	0.140
CCCCCCCC/C=C\CCCCCCCC(=O)O	0.142
CCCCCCCCCCCCO	0.142
C[Si](C)(C)O[Si](C)(C)C	0.126
OC[C@H]1O[C@@H]2O[C@H]3[C@H](O)[C@@H](O)[C@@H](O[C@H]4[C@H](O)[C@@H](O)[C@@H](O[C@H]5[C@H](O)[C@@H](O)[C@@H](O[C@H]6[C@H](O)[C@@H](O)[C@@H](O[C@H]7[C@H](O)[C@@H](O)[C@@H](O[C@H]8[C@H](O)[C@@H](O)[C@@H](O[C@H]1[C@H](O)[C@H]2O)O[C@@H]8CO)O[C@@H]7CO)O[C@@H]6CO)O[C@@H]5CO)O[C@@H]4CO)O[C@@H]3CO	0.135
CC(C)CCCC(C)CCCC(C)CCCCC(C)CCCC(C)CCCC(C)C (stereo not drawn)	0.123
O=C1CCCN1	0.133
CCCCCCCC/C=C\CCCCCCCCO	0.136

For reference, reported NR Probe, mean LFL1 for CC(O)CO (stereo not drawn) stands at 0.148
